The origin of these recorded values is patent US11236055B2.

Molecular target: human TGR5 receptor (Homo sapiens, UniProt Q8TDU6)
Sequence (Q8TDU6 whole entry): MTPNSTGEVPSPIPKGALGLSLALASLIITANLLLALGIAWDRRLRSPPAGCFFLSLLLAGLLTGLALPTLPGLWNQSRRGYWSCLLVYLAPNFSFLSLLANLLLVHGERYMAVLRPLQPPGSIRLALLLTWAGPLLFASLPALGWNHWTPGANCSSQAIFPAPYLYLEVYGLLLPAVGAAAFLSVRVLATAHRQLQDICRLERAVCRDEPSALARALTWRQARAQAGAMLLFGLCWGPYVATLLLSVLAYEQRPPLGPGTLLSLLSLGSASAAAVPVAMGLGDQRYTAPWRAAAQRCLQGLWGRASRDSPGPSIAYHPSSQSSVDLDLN
Assay: Human TGR5 cAMP production assay
Conditions: human TGR5, luminescent cAMP assay; coded A-D; read-out: Human TGR5 Lum. cAMP Activity (EC50)
Measured Quantity: EC50

                                   molecule                            assayed_system  measured_quantity  experimental_result
0  Cc1cnccc1-c1cccc(C2CN(C(=O)CCC(=O)O)CCN2S(=O)(=O)c2cccc(Cl)c2Cl)c1 (stereo not shown) [Compound 46AK]  human TGR5 receptor (Homo sapiens, UniProt Q8TDU6)               EC50        100 to 999 nM
1  Cc1cnccc1-c1cccc(C(C)(C)N(CCCC(=O)NCCNC(=N)N)S(=O)(=O)c2cccc(Cl)c2C)c1 [Compound 27AB]  human TGR5 receptor (Homo sapiens, UniProt Q8TDU6)               EC50             < 100 nM
2  O=S(=O)(NCc1ccc(F)c(-c2ccncc2Cl)c1)c1cccc(C(F)(F)F)c1 [Compound 1AT]  human TGR5 receptor (Homo sapiens, UniProt Q8TDU6)               EC50     1000 to 30000 nM
3  Cc1cnccc1-c1cccc([C@H](C)N(CCCCC(=O)NCCOCCNC(=O)NCCS(=O)(=O)O)S(=O)(=O)c2cccc(Cl)c2C)c1 [Compound 28AF]  human TGR5 receptor (Homo sapiens, UniProt Q8TDU6)               EC50             < 100 nM
4  CN(C)C(=O)c1cnccc1-c1cccc(C(C)(C)NS(=O)(=O)c2ccccc2C(F)(F)F)c1 [Compound 11]  human TGR5 receptor (Homo sapiens, UniProt Q8TDU6)               EC50     1000 to 30000 nM
5  CCc1cnccc1-c1cccc([C@H](C)N(CCCCC(=O)NCCS(=O)(=O)O)S(=O)(=O)c2cccc(Cl)c2C)c1 [Compound 20AS]  human TGR5 receptor (Homo sapiens, UniProt Q8TDU6)               EC50             < 100 nM
6  O=S(=O)(NCc1cccc(-c2ccncc2Cl)c1)c1cccc(C(F)(F)F)c1 [Compound 1AQ]  human TGR5 receptor (Homo sapiens, UniProt Q8TDU6)               EC50        100 to 999 nM

---

Below, each entry is listed alongside its reported pEC50.
Molecular target: UniProtKB Q8TDU6
Experiment: Human TGR5 cAMP production assay
Settings: human TGR5, luminescent cAMP assay; coded A-D; read-out: Human TGR5 Lum. cAMP Activity (EC50)
Protocol: Human TGR5 cAMP Production Assay We evaluated the Compounds of the present invention for their ability to induce cAMP production using CHO-K1 cells overexpressing the human TGR5 receptor. […] Test compounds were serially diluted (half-log dilutions) in DMSO and then further diluted 1:50 in PBS, 10 mM HEPES buffer. […] Luminescent signal was then detected using the Viewlux instrument (Perkin-Elmer, Waltham, Mass.). […]
pEC50: −log10 of the molar value. Counter-ions that a name gives are not always drawn.
Measured Quantity: pEC50

In [3]: df
Out[3]:
                                    compound  experimental_result
 0  CCc1cnccc1-c1cccc([C@H](C)N(CCCC(=O)NCCCS(=O)(=O)O)S(=O)(=O)c2cccc(Cl)c2C)c1 [Compound 20AM]               > 7.00
 1  Cc1cnsc1-c1cccc([C@H](C)NS(=O)(=O)c2cccc(Cl)c2C)c1 [Compound 7AA]         4.52 to 6.00
 2  CCc1cnccc1-c1cccc([C@H](C)N(CCCC(=O)NCCNS(N)(=O)=O)S(=O)(=O)c2cccc(Cl)c2C)c1 [Compound 37AA]               > 7.00
 3  O=[N+]([O-])c1cccc(S(=O)(=O)NCc2cccc(-c3ccncc3)c2)c1 [Compound 2AN]         4.52 to 6.00
 4  Cc1cnccc1-c1cccc([C@H](CCCC#N)N(CCCC(=O)O)S(=O)(=O)c2cccc(Cl)c2C)c1 [Compound 15AD]         6.00 to 7.00
 5  Cc1cnccc1-c1cccc([C@H](C)N(CCCC(=O)NCCS(=O)(=O)NCC(=O)O)S(=O)(=O)c2cccc(Cl)c2C)c1 [Compound 21AN]               > 7.00
 6  Cc1cnccc1-c1cccc([C@H](C)N(CCCCC(=O)O)S(=O)(=O)c2cccc(Cl)c2C)c1 [Compound 16AF]               > 7.00
 7  Cc1cnccc1-c1cccc(C(C)(C)N(CCCC(=O)NCC(N)=O)S(=O)(=O)c2cccc(Cl)c2C)c1 [Compound 21AC]               > 7.00
 8  CCc1cnccc1-c1cccc([C@H](C)N(CCCC(=O)NCCS(=O)(=O)O)S(=O)(=O)c2ccccc2C)c1 [Compound 20AR]               > 7.00
 9  Cc1noc(C)c1-c1cccc(CNS(=O)(=O)c2ccc(C(F)(F)F)cc2)c1 [Compound 1AA]         4.52 to 6.00
10  Cc1cnccc1-c1cccc([C@H](C)N(CCCCC(=O)NCCS(=O)(=O)NCC(=O)O)S(=O)(=O)c2ccccc2C(F)(F)F)c1 [Compound 20BL]               > 7.00
11  CCc1cnccc1-c1cccc(C2CNCCN2S(=O)(=O)c2cccc(Cl)c2C)c1 (racemic) [Compound 43, hydrochloride]               > 7.00
12  CC(C)(NS(=O)(=O)c1ccccc1C(F)(F)F)c1cccc(-c2ccncc2O)c1 [Compound 1BM]               > 7.00
13  Cc1cnccc1-c1cccc([C@H](CCCC#N)NS(=O)(=O)c2ccccc2C(F)(F)F)c1 [Compound 5BC]               > 7.00
14  CCc1cnccc1-c1cccc([C@H](C)N(CCCC(=O)NCS(=O)(=O)O)S(=O)(=O)c2cccc(Cl)c2C)c1 [Compound 21AR]               > 7.00

---

Below, each entry is listed alongside its reported EC50.
Molecular target: mouse TGR5 receptor (Mus musculus, UniProt Q80SS6)
Construct: expressed in transfected cells; host or cells: HEK293-EBNA (293 c18, ATCC CRL10852), Hygromycin B selection
Sequence (Q80SS6 1-329): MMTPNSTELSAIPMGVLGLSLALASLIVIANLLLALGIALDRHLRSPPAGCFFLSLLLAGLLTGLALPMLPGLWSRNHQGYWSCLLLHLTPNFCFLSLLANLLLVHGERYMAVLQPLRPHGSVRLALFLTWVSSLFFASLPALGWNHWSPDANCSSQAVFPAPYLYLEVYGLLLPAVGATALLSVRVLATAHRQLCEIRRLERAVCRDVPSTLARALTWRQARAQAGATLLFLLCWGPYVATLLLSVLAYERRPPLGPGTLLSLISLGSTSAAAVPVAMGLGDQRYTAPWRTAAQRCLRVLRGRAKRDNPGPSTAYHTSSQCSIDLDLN
Test: Mouse TGR5 cAMP production assay (HTRF, Cisbio cAMP HiRange)
Type: cell-based
Settings: HEK293-EBNA cells overexpressing mouse TGR5, HTRF cAMP HiRange; coded A-D
Structures can show the parent of a compound that is named as a salt.
Measured Quantity: EC50

                                   compound                            assayed_system  measured_quantity  experimental_result
0  Cc1cnccc1-c1cccc(CN(CCCNC(=O)NCS(=O)(=O)O)S(=O)(=O)c2cccc(Cl)c2C)c1 [Compound 28AI]  mouse TGR5 receptor (Mus musculus, UniProt Q80SS6)               EC50        100 to 999 nM
1  CCc1cnccc1-c1cccc(C(C)(C)N(CCCC(=O)NCCS(=O)(=O)O)S(=O)(=O)c2ccccc2C(F)(F)F)c1 [Compound 20]  mouse TGR5 receptor (Mus musculus, UniProt Q80SS6)               EC50             < 100 nM
2  Cc1cnccc1-c1cccc([C@H](C)N(CCCCNCCC(=O)O)S(=O)(=O)c2cccc(Cl)c2C)c1 [Compound 33]  mouse TGR5 receptor (Mus musculus, UniProt Q80SS6)               EC50        100 to 999 nM
3  Cc1cnccc1-c1cccc([C@H](C)N(CCCC(=O)NCCOCCOCCOCCC(=O)O)S(=O)(=O)c2cccc(Cl)c2C)c1 [Compound 20AU]  mouse TGR5 receptor (Mus musculus, UniProt Q80SS6)               EC50        100 to 999 nM
4  COC(=O)c1cnccc1-c1cccc(C(C)(C)NS(=O)(=O)c2ccccc2C(F)(F)F)c1 [Compound 6]  mouse TGR5 receptor (Mus musculus, UniProt Q80SS6)               EC50     1000 to 30000 nM
5  Cc1cnccc1-c1cccc(C2CN(C(=O)CCCC(=O)O)CCN2S(=O)(=O)c2cccc(Cl)c2C)c1 (stereo not shown) [Compound 46AE]  mouse TGR5 receptor (Mus musculus, UniProt Q80SS6)               EC50             < 100 nM
6  CCc1cnccc1-c1cccc(C2CNCCN2S(=O)(=O)c2cccc(Cl)c2C)c1 (racemic) [Compound 43, hydrochloride]  mouse TGR5 receptor (Mus musculus, UniProt Q80SS6)               EC50             < 100 nM
